Tested on: Plasmodium berghei
Assay: Luciferase/luciferin-expressing antifolate-resistant parasites were used to infect a culture of HepG2 cells that were pre-incubated with compounds. Infected hepatocytes emit light due to the luciferase reaction. Assay results are presented as the percent inhibition of light emission compared to control. […]
Type: functional
Settings: sporozoite, PBLUC_HILL_SLOPE 158, PBLUC_R_SQUARED 0.0148, read-out: LUCIFERASE INFECTION ASSAY - IC50
readout.label: IC50 (µM)
Respond with the bare value in µM.

*Q* IC50 of CCOc1cc(/C=C(/C(=O)c2ccc(Br)cc2)c2nc3ccccc3[nH]2)ccc1O on Plasmodium berghei?
*A* 4.53

###

Test system: Plasmodium berghei
Assay: Luciferase/luciferin-expressing antifolate-resistant parasites were used to infect a culture of HepG2 cells that were pre-incubated with compounds. Infected hepatocytes emit light due to the luciferase reaction. Assay results are presented as the percent inhibition of light emission compared to control. […]
Format: functional
Details: sporozoite, PBLUC_HILL_SLOPE 80.6, PBLUC_R_SQUARED 0.104, read-out: LUCIFERASE INFECTION ASSAY - IC50
readout.label: pIC50
pIC50 is defined as minus the log10 of a concentration measured in mol/L.

*Q* Recorded pIC50 for NC(=O)c1ccc(-c2cc(-c3cccc(C(F)(F)F)c3)cnc2N)cc1 , please?
*A* 5.31

###

System: Plasmodium berghei
Experiment: Luciferase/luciferin-expressing antifolate-resistant parasites were used to infect a culture of HepG2 cells that were pre-incubated with compounds. Infected hepatocytes emit light due to the luciferase reaction. Assay results are presented as the percent inhibition of light emission compared to control. […]
Assay type: functional
Details: sporozoite, FFLUC_HILL_SLOPE 2.02, FFLUC_R_SQUARED 0.0931, PBLUC_HILL_SLOPE 0.909, PBLUC_R_SQUARED 0.727, read-out: LUCIFERASE INFECTION ASSAY - IC50
readout.label: IC50
In your response, put the unit directly after the numeric value.

*Q* Recorded IC50 for COc1ccccc1-c1noc(-c2cc3c(s2)CCCCC3)n1 , please?
*A* 75.4 nM

###

System: Plasmodium berghei
Test: Luciferase/luciferin-expressing antifolate-resistant parasites were used to infect a culture of HepG2 cells that were pre-incubated with compounds. Infected hepatocytes emit light due to the luciferase reaction. Assay results are presented as the percent inhibition of light emission compared to control. […]
Assay type: functional
Conditions: sporozoite, FFLUC_HILL_SLOPE 12.6, FFLUC_R_SQUARED 0.68, HEPG2TOX_HILL_SLOPE 16.7, HEPG2TOX_R_SQUARED 0.936, PBLUC_HILL_SLOPE 11.7, PBLUC_R_SQUARED 0.538, read-out: LUCIFERASE INFECTION ASSAY - IC50
readout.label: pIC50
pIC50 is defined as minus the log10 of a concentration measured in mol/L.

*Q* Recorded pIC50 for CCc1cccc(CC)c1N1C(=O)C=CC1=O , please?
*A* 5.31

###

System: Plasmodium berghei
Experiment: Luciferase/luciferin-expressing antifolate-resistant parasites were used to infect a culture of HepG2 cells that were pre-incubated with compounds. Infected hepatocytes emit light due to the luciferase reaction. Assay results are presented as the percent inhibition of light emission compared to control. […]
Assay type: functional
Conditions: sporozoite, read-out: LUCIFERASE INFECTION ASSAY - IC90
Below, each entry is listed alongside its reported IC90.
Respond with the bare value in µM.

> print(dat)
                                   compound              system  recorded.number
1  O=C(Nc1ccc(Oc2ccccc2)cc1)c1csc(C(O)c2ccccc2)n1 (stereo unspecified)  Plasmodium berghei             7.41
2  Cc1c(C(=O)NC2CC2)sc(=O)n1Cc1ccc(-c2ccccc2)cc1  Plasmodium berghei             8.88
3  CCN(c1ccc(-c2csc(Nc3ccc4c(c3)OCCO4)n2)cc1)S(C)(=O)=O  Plasmodium berghei              5.7
4  CC(C)(C)C1CCc2[nH]c(=O)sc2C1 (stereo unspecified)  Plasmodium berghei             1.31

Query compound follows.
*Q* Recorded IC90 for O=C(NCc1ccc(Oc2ccc(F)cc2)cc1)C1Cc2ccccc2O1 (stereo unspecified) , please?
*A* 3.84
